- Tested on: HCC-2998 colon
- assayDetails: NCI tumour cell line growth inhibition, 48 h
propertyMeasured: TGI

Here is how some molecules turned out for TGI.
[
  {
    "molecule": "COC(=O)C1C(C(=O)OC)C2(OC)c3ccccc3-c3ccccc3C12 (stereo not given)",
    "TGI": "> 100 µM"
  },
  {
    "molecule": "CC(C)=CCC[C@@H](C)C1=C(O)C(O)C(C)=C2N=C(c3ccccc3)C(=O)OC21 (stereo not given in full)",
    "TGI": "21.2 µM"
  },
  {
    "molecule": "C=CCC(N[C@H](CO)c1ccccc1)c1ccc2ccccc2n1 (stereo not given in full)",
    "TGI": "> 100 µM"
  },
  {
    "molecule": "CC(=O)c1c(C)[nH]c(-c2nc3ccc(N4CCN(C)CC4)cc3[nH]2)c1-c1ccc(OCC2CCOCC2)cc1",
    "TGI": "3.31 µM"
  }
]

Here is another molecule to look at.
QUERY: # query: TGI of entry CCN(CC)CC(O)CNc1ccc(NCC2CO2)c2c1C(=O)c1ccccc1C2=O (stereo not given)
RESULT: 2.77 µM
